Experiment: chemical genetic growth profiling, strain panel (AID 1159580);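 further: tested at 20 µM; growth read once vehicle control cultures reached saturation at 30 °C; 1 = growth at the plate median or of vehicle wells; lower values mean less growth of the strain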
Details: S. cerevisiae deletion strains, growth OD, locus YMR263W, strain SAP30, active compounds read low
In all, about 5,500 compounds went through this assay and about 2,000 (36%) were called active. Another 18% or so got no clear call; they are omitted. The list shows a part of the results.
Entries annotated with measured normalized growth
Form rule: numeric answer, no unit written next to it.

Examples with their reported normalized growth follow.
>>> df
                                   compound     assay_endpoint  number
0  O=C(COC(=O)c1ccccc1Nc1cccc(F)c1)c1ccccc1  normalized growth   0.997
1  CN(C(=O)CCCOc1ccc2[nH]c(=O)ccc2c1)C1CCCCC1  normalized growth   0.989
2                    CSC1=NCN(Cc2ccccc2)CN1  normalized growth       1
3               NC(=S)N/N=C\c1ccc(F)c(Cl)c1  normalized growth   0.919
4                          CNc1ccccc1C(=O)O  normalized growth    1.02
5  O=C(COC(=O)c1ccccc1Nc1ccccc1)c1ccc(Cl)cc1  normalized growth   0.927
6  CC(O)C(O)[C@H]1CNc2nc(N)[nH]c(=O)c2N1 (stereo partly drawn)  normalized growth    1.01
7     Cc1c(-c2ccnc(N)n2)nnn1-c1ccc(Cl)cc1Cl  normalized growth    0.98
8                      Cc1[nH]ncc1-c1ccccc1  normalized growth   0.967
9                        CN1C2CCC1CC(=NO)C2  normalized growth   0.986

Which normalized growth value belongs to O=C1C=CC2=C3c4cc(O)c(O)cc4CC3(O)COC2=C1O (stereo not drawn) ?
0.965

If you can, please state the reported normalized growth value of `O=S(=O)(N/N=C\c1ccc(Cl)cc1)c1ccc(-c2ccccn2)s1` .
0.976

Which normalized growth value is on record for `NC(=S)N/N=C\c1cc(F)cc(F)c1` ?
0.92
